Biological target: HLA-A*3101 (human)
Assay: competition with 125I-labelled standard peptide for purified HLA; gel filtration
Recorded IC50 for the following binders
Give just the numeric value; µM need not be written.

Solved cases below.
binder: AVPLDSTFYR [Her2/neu.997.V2]
result_units: µM
assay_result: 30

binder: LVKSPNHVR [Her2/neu.852.R9]
result_units: µM
assay_result: 0.198

Kindly consider the entry below.
Consider the binder shown here: AVPLDSTFYK [Her2/neU.997.V2K10] What is its recorded IC50?
1.5
